molecular target: h-5-HT6 receptor (Homo sapiens)
Sequence (P50406 whole entry): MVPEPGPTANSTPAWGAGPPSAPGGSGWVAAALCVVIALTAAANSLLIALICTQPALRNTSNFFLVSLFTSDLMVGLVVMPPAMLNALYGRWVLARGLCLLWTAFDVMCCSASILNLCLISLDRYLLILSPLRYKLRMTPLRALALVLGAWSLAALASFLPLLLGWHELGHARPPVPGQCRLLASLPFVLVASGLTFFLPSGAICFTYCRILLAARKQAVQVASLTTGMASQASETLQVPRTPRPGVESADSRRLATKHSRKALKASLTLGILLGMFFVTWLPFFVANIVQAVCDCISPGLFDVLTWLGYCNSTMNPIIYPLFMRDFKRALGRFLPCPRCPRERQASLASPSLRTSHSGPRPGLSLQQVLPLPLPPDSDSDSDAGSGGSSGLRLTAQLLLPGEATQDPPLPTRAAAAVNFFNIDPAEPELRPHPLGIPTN
pKi: −log10 of the molar value. Counter-ions that a name gives are not always drawn.
For each record, write down the corresponding pKi.

See these solved cases before continuing.
>  <compound>
Cc1ccc(NS(=O)(=O)c2ccccc2OC(F)F)cc1N1CCCN(C)CC1 [Example 8, hydrochloride]

>  <pKi>
> 8.00

$$$$
>  <compound>
COc1ccc(NS(=O)(=O)c2ccccc2OC(F)F)cc1N1CCCNCC1 [Example 3, hydrochloride]

>  <pKi>
> 8.00

$$$$
>  <compound>
COc1ccc(NS(=O)(=O)c2cccc(OC(F)F)c2)cc1N1CCCNCC1 [Example 1, hydrochloride]

>  <pKi>
> 8.00

$$$$

Lab note: next compound to report on.
Q: Write down measured pKi (h-5-HT6 receptor (Homo sapiens)) for this compound. Cc1ccc(NS(=O)(=O)c2cccc(OC(F)F)c2)cc1N1CCCNCC1 [Example 7, hydrochloride]
Result: > 7.30

Source of measurements: patent US8362010B2
